Biological target: SpCas9 (Streptococcus pyogenes serotype M1)
Sequence (Q99ZW2 whole entry): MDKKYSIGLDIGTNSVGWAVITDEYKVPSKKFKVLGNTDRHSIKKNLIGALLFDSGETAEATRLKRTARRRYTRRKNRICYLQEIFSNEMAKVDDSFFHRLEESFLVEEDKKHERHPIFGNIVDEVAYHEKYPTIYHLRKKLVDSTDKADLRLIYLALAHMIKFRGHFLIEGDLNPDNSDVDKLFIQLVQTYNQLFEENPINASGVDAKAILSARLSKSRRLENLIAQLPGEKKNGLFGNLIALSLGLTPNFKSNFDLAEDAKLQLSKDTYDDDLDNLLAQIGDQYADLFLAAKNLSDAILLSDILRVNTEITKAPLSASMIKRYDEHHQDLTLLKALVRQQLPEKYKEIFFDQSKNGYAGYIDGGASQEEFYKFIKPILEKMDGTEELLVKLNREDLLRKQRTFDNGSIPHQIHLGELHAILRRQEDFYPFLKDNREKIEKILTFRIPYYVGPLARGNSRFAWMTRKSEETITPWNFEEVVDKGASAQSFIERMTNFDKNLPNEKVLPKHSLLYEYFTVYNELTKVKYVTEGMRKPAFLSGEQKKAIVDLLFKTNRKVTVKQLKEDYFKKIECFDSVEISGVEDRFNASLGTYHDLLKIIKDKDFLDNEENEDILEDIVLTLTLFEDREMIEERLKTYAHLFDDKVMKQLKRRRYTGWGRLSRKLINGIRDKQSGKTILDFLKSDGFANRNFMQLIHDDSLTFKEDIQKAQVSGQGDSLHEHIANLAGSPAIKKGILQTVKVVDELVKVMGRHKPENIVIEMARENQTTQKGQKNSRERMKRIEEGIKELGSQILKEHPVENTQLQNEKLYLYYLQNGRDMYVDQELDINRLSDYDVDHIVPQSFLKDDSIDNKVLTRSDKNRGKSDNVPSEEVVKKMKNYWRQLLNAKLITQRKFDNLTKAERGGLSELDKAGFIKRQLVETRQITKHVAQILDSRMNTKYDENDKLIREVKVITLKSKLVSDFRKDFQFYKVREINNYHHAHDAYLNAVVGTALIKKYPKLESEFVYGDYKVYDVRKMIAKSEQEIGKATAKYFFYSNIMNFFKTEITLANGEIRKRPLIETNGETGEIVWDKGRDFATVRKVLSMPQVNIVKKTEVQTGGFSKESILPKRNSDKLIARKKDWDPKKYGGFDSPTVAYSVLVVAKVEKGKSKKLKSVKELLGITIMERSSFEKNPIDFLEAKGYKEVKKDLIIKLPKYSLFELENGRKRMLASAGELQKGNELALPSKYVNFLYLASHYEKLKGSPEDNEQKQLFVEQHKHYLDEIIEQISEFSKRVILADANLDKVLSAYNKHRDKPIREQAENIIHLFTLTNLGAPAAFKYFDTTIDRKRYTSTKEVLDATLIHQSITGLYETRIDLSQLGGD
Assay: eGFP-disruption assay in U2OS.eGFP.PEST cells
Format: cell-based, S. pyogenes
Design: host or cells: U2OS.eGFP.PEST
Details: screen of structural analogs of BRD7087; 15 μM compound, 24 h, U2OS.eGFP.PEST cells
ATTRIBUTE_MEASURED: Inhibition activity Rep 1
In your answer, state the number alone without any accompanying words.

{"columns": ["MOLECULE", "Inhibition activity Rep 1"],
 "data": [
  ["COc1ccc(S(=O)(=O)N2CC[C@@H]3[C@H](CO)N(C)c4ccc(-c5ccccc5F)cc4[C@@H]32)cc1 [BRD-K69451415]", 56.2],
  ["CN1c2ccc(C#Cc3cccnc3)cc2[C@@H]2[C@@H](CCN2S(=O)(=O)c2ccccc2F)[C@H]1CO [BRD-K39647256]", 51.3],
  ["OC[C@@H]1Nc2ccc(C#Cc3cccnc3)cc2[C@H]2NCC[C@@H]12 [BRD-K71200053]", 54.6],
  ["Cc1ccccc1S(=O)(=O)N1CC[C@@H]2[C@H](CO)N(C)c3ccc(C#Cc4ccc(F)cc4)cc3[C@@H]21 [BRD-K11385710]", 55.7],
  ["O=C(c1ccc(F)cc1)N1CC[C@@H]2[C@H]1c1cc(C#Cc3ccccc3F)ccc1N[C@@H]2CO [BRD-K79906422]", 51.3]
]}

Identify measured Inhibition activity Rep 1 corresponding to COc1cccc(S(=O)(=O)N2CC[C@@H]3[C@H](CO)N(C)c4ccc(C#Cc5cccnc5)cc4[C@@H]32)c1 [BRD-K29966477]
50.1

Identify measured Inhibition activity Rep 1 corresponding to OC[C@@H]1Nc2ccc(-c3ccccc3)cc2[C@@H]2[C@H]1CCN2Cc1ccc(F)cc1 [BRD-K90247032]
47.6

Data credit: patent US12391685B2
